Parameter: pEC50. Scope: all listed entries.
# Test system: HIV-2(ROD)
# test protocol: Inhibition of HIV-2 (ROD)-induced cytopathicity (giant cell formation) in CEM cells
# Type: cell-based
# conditions used: read-out: EC50 HIV-2 (concentration required to inhibit HIV-induced giant cell formation by 50%); HIV-2, CEM cell cultures
# Procedure: A variety of glycopeptide antibiotic derivatives of vancomycin, eremomycin and teicoplanin including their aglycon derivatives were evaluated for their inhibitory activity against HIV-1 (IIIB) and HIV-2(ROD) in CEM cell cultures.
pEC50: −log10 of the molar value.
quantity kind: pEC50

NC1C(=O)NC2Cc3ccc(c(Cl)c3)Oc3cc4cc(c3O)Oc3ccc(cc3Cl)C(O)C3NC(=O)C(NC(=O)C4NC(=O)C(NC2=O)c2cc(O)cc(c2)Oc2cc1ccc2O)c1ccc(O)c(c1)-c1c(O)cc(O)cc1C(C(=O)N1CCN(Cc2ccc4ccccc4c2)CC1)NC3=O (stereo not shown) [Compound 25]; 5.30
COC(=O)C1NC(=O)C2NC(=O)C(NC(=O)C(N)c3cc(Oc4ccc(CC(NC(=O)OCc5ccccc5)C(=O)O)cc4Cl)c(O)c(c3)Oc3ccc(cc3Cl)C2O)c2ccc(O)c(c2)-c2c1cc(O)c(CNC1C3CC4CC(C3)CC1C4)c2O (stereo not shown) [Compound 54]; 4.43
CCCCCCCCCC(=O)N1CCN(C(=O)C2NC(=O)C3NC(=O)C(NC(=O)C4NC(=O)C5NC(=O)C(Cc6ccc(c(Cl)c6)Oc6cc4cc(c6O)Oc4ccc(cc4Cl)C3O)NC(=O)C(N)c3ccc(O)c(c3)Oc3cc(O)cc5c3)c3ccc(O)c(c3)-c3c(O)cc(O)cc32)CC1 (stereo not shown) [Compound 40]; 5.35
NC1C(=O)NC2Cc3ccc(c(Cl)c3)Oc3cc4cc(c3O)Oc3ccc(cc3Cl)C(O)C3NC(=O)C(NC(=O)C4NC(=O)C(NC2=O)c2cc(O)cc(c2)Oc2cc1ccc2O)c1ccc(O)c(c1)-c1c(O)cc(O)cc1C(C(=O)NCc1ccc(F)cc1)NC3=O (stereo not shown) [Compound 165]; 4.52
C[N+](C)(C)CCCNC(=O)C1NC(=O)C2NC(=O)C(NC(=O)C3NC(=O)C4NC(=O)C(Cc5ccc(c(Cl)c5)Oc5cc3cc(c5O)Oc3ccc(cc3Cl)C2O)NC(=O)C(N)c2ccc(O)c(c2)Oc2cc(O)cc4c2)c2ccc(O)c(c2)-c2c1cc(O)c(CN1CCN(Cc3ccc(-c4ccccc4)cc3)CC1)c2O (stereo not shown) [Compound 29]; 4.66
NCCCCCCCCCCNC(=O)C1NC(=O)C2NC(=O)C(NC(=O)C3NC(=O)C4NC(=O)C(Cc5ccc(c(Cl)c5)Oc5cc3cc(c5O)Oc3ccc(cc3Cl)C2O)NC(=O)C(N)c2ccc(O)c(c2)Oc2cc(O)cc4c2)c2ccc(O)c(c2)-c2c(O)cc(O)cc21 (stereo not shown) [Compound 43]; 4.90
